Biological target: JNK3 (Homo sapiens, UniProt P53779)
Construct: One such construct encodes amino acid residues Ser40-Glu402 of JNK3α1 and is preceded by Met and Gly residues; Met-Gly (initiation methionine plus glycine added for the NcoI site)
Sequence (P53779 40-402): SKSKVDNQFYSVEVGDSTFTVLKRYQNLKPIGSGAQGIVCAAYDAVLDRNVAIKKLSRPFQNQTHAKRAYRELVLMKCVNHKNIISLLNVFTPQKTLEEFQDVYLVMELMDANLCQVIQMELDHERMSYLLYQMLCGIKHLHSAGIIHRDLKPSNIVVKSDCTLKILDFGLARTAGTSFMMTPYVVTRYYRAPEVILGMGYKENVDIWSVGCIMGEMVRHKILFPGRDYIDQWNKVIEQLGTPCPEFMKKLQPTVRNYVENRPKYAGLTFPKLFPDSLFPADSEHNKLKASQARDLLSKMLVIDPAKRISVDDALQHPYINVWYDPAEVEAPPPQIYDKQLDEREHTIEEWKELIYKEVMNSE
Experiment: JNK inhibition assay: spectrophotometric coupled-enzyme assay with activated JNK3
Settings: activated JNK3 10 nM, 10 μM ATP, 200 μM EGF receptor peptide, 30° C., competitive inhibition model
measure: Ki

- chem.smiles: "O=C1/C(=N\\O)c2cc(F)ccc2N1Cc1ccc(F)cc1"
  measure: "Ki"
  assay.value: "≥ 1 µM"
- chem.smiles: "O=C1/C(=N\\O)c2c(-c3ccsc3)cccc2N1Cc1cc(F)cc2c1OCOC2"
  measure: "Ki"
  assay.value: "≥ 1 µM"
- chem.smiles: "O=C1/C(=N\\O)c2cc(F)ccc2N1Cc1ccccc1F"
  measure: "Ki"
  assay.value: "≥ 1 µM"
- chem.smiles: "O=C1/C(=N\\O)c2ccccc2N1Cc1csc(-c2ccc(Cl)cc2)n1"
  measure: "Ki"
  assay.value: "≥ 1 µM"
- chem.smiles: "Cc1cc(C)c2c(c1)/C(=N/O)C(=O)N2Cc1cccc([N+](=O)[O-])c1"
  measure: "Ki"
  assay.value: "≥ 1 µM"
- chem.smiles: "O=C1/C(=N\\O)c2cc(Cl)ccc2N1Cc1ccc(F)cc1"
  measure: "Ki"
  assay.value: "≥ 1 µM"

====

Biological target: JNK3 (Homo sapiens)
Construct: One such construct encodes amino acid residues Ser40-Glu402 of JNK3α1 and is preceded by Met and Gly residues; Met-Gly (initiation methionine plus glycine added for the NcoI site)
Assay: JNK inhibition assay: spectrophotometric coupled-enzyme assay with activated JNK3
Conditions: activated JNK3 10 nM, 10 μM ATP, 200 μM EGF receptor peptide, 30° C., competitive inhibition model
Ki listing for selected compounds.

- chem.smiles: "O=C(Nc1ccc2c(c1)N(Cc1cc(F)cc3c1OCOC3)C(=O)/C2=N\\O)c1ccc(F)cc1"
  Ki: "< 1 µM"
- chem.smiles: "O=C1/C(=N\\O)c2cc([N+](=O)[O-])ccc2N1Cc1ccc(Cl)cc1"
  Ki: "≥ 1 µM"
- chem.smiles: "CN(C)CC(=O)Nc1ccc2c(c1)N(Cc1cc(F)cc3c1OCOC3)C(=O)/C2=N\\O"
  Ki: "≥ 1 µM"
- chem.smiles: "COc1ccc(CN2C(=O)/C(=N\\O)c3cc(F)ccc32)cc1"
  Ki: "≥ 1 µM"
- chem.smiles: "Cc1ccc(CN2C(=O)/C(=N\\O)c3cc(F)ccc32)cc1"
  Ki: "≥ 1 µM"
- chem.smiles: "O=C1/C(=N\\O)c2ccccc2N1Cc1c(Cl)cccc1Cl"
  Ki: "< 1 µM"
- chem.smiles: "O=C(CN1C(=O)/C(=N\\O)c2cc(Br)ccc21)OCc1ccccc1"
  Ki: "≥ 1 µM"
- chem.smiles: "O=C1/C(=N\\O)c2c(CCc3ccccc3)cccc2N1Cc1cc(F)cc2c1OCOC2"
  Ki: "≥ 1 µM"
- chem.smiles: "Cc1ccc(CN2C(=O)/C(=N\\O)c3cc(Cl)ccc32)cc1"
  Ki: "≥ 1 µM"
- chem.smiles: "COC(=O)CNC(=O)c1ccc2c(c1)N(Cc1cc(F)cc3c1OCOC3)C(=O)/C2=N\\O"
  Ki: "≥ 1 µM"
